Test system: C/HT1080 cells
Assay: alamarBlue cytotoxicity, control-transfected HT1080
Assay type: cell-based, human
Conditions: C/HT1080, TS Level 100%
Description: Cell lines and transfection. HT1080 cells were grown in PRM11640 medium supplemented with 10% fetal calf serum, and transfected with GFP-TS expression vector. […] After selection with G418 for two weeks, surviving cells were sorted based upon fluorescence expression. One clone with higher fluorescence expression (named as TSH/HT1080) and one clone with lower fluorescence expression (named as TSL/HT1080) were selected and expanded into cells lines. […]
pIC50: −log10 of the molar value.
measured endpoint: pIC50

# value lookup — system C/HT1080 cells, readout pIC50, item O=c1[nH]c(=O)n([C@H]2C[C@H](O)[C@@H](CO)O2)cc1F
> 7.00

====

Tested on: A431 (Skin) tumor cells
Assay: alamarBlue growth inhibition, A431
Format: cell-based, human
Conditions: Homo sapiens, A-431, 120 hours
Method: Growth Inhibition Studies. Cells growing exponentially were transferred to 384-well flat bottom tissue culture plates. All cell types were plated at a density of 500 cells per well in 25 μL of complete medium (RPMI 1640+10% fetal bovine serum+antibiotics/antimycotics). […] After 4 hours incubation at 37° C., fluorescence was monitored at 535 nm excitation and 595 nm emission. Concentration vs. relative fluorescence units (RFU) were plotted, and sigmoid curves were fit using the Hill equation.
measured endpoint: pIC50
Give bare numbers, as −log10 of the molar value.

Given the molecule O=c1[nH]cc(F)c(=O)[nH]1 , what is its reported pIC50?
6.70

====

Tested on: MRC9 (Lung) normal cells
Assay: alamarBlue growth inhibition, MRC9
Format: cell-based, human
Settings: Homo sapiens, 120 hours
measured endpoint: IC50 (nM)
One number for each entry, in nM.

Reported IC50, compound O=c1[nH]cc(F)c(=O)[nH]1 : ____
1100

====

Test system: SKLU1 (Lung) tumor cells
Test: alamarBlue growth inhibition, SKLU1
Format: cell-based, human
Conditions: Homo sapiens, SK-LU-1, 120 hours
Description: Growth Inhibition Studies. Cells growing exponentially were transferred to 384-well flat bottom tissue culture plates. All cell types were plated at a density of 500 cells per well in 25 μL of complete medium (RPMI 1640+10% fetal bovine serum+antibiotics/antimycotics). […] After 4 hours incubation at 37° C., fluorescence was monitored at 535 nm excitation and 595 nm emission. Concentration vs. relative fluorescence units (RFU) were plotted, and sigmoid curves were fit using the Hill equation.
measured endpoint: pIC50
Numbers only, as −log10 of the molar value.

# pIC50 lookup, item O=c1[nH]cc(F)c(=O)[nH]1 [5FU, 5-fluorouracil]
5.10

====

Tested on: SW620 (Colon) tumor cells
Assay: alamarBlue growth inhibition, SW620
Format: cell-based, human
Details: Homo sapiens, SW-620, 120 hours
measured endpoint: IC50 (µM)
Answers are plain numbers, in µM.

Report IC50 for O=c1[nH]cc(F)c(=O)[nH]1 please.
4.6

====

Tested on: NHOST (Bone) normal cells
Test: alamarBlue growth inhibition, NHOST
Assay type: cell-based, human
Settings: Homo sapiens, 120 hours
measured endpoint: IC50 (µM)
One number for each entry, in µM.

Value wanted: IC50 (NHOST (Bone) normal cells) of entry O=c1[nH]cc(F)c(=O)[nH]1
4.7

====

Biological target: rHuTS (recombinant human thymidylate synthase) (Homo sapiens)
Construct: His tag (from pET-28a(+)) (N); made in house; host or cells: E. coli BL21 (DE3)/pET-28a(+)
Sequence (P04818 whole entry): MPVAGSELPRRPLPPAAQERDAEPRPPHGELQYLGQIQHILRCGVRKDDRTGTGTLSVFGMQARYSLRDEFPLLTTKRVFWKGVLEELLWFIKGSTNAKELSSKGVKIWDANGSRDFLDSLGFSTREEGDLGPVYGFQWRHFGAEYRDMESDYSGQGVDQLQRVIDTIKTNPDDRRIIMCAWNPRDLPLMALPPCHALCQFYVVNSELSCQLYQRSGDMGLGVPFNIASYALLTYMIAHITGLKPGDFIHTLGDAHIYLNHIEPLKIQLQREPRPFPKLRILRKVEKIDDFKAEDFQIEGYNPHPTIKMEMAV
Assay: Enzyme kinetics of rHuTS with dUMP and BVdUMP
Format: biochemical
Conditions: rHuTS, dUMP reaction; read-out: Kl (of BVdUMP)
measured endpoint: pKi
Numbers only, as −log10 of the molar value.

For rHuTS (recombinant human thymidylate synthase) (Homo sapiens), provide pKi of O=c1[nH]c(=O)n([C@H]2C[C@H](O)[C@@H](COP(=O)(O)O)O2)cc1/C=C/Br [BVdUMP] please.
5.35

====

Test system: MDAMB361 (Breast) tumor cells
Experiment: alamarBlue growth inhibition, MDAMB361
Assay type: cell-based, human
Settings: Homo sapiens, MDA-MB-361, 120 hours
measured endpoint: pIC50
One number for each entry, as −log10 of the molar value.

Entry O=c1[nH]cc(F)c(=O)[nH]1 [5FU, 5-fluorouracil] has what pIC50?
5.30
